test system: DU-145; test: Antiproliferative activity against human DU-145 cells assessed as inhibition of cell growth after 72 hrs by MTT assay; assay type: functional, cell-based; details: DU-145, 72 h
What IC50 was measured for each of the following?

For orientation, consider the following solved cases.
Smiles Entry | Observed Value
CCCOc1cc(-c2nc(C(N)=O)cc3cc4c(cc23)OCCO4)cc(OC)c1OC | > 10 µM
COc1cc(-c2nc(C(=O)O)cc3cc4c(cc23)OCCO4)cc(OC)c1OC | > 10 µM

Now for the compound whose IC50 we want.
Exam item: Fill in the blank: the reported IC50 of "CCOc1c(OC)cc(-c2nc(C(N)=O)cc3cc4c(cc23)OCCO4)cc1OC" is ____.
Marked response: > 10 µM

Ref: ChEMBL document CHEMBL5528053
